Reference source: the supplement of paper PMC5998384

system: HeLa Kyoto; test: solubility in G1/S (NP-40 vs SDS abundance) (log2 ratio); higher = more soluble; details: cell cycle stage: G1/S
METRIC_NAME: solubility in G1/S (log2)

1. MACAAARSPADQDRFICIYPAYLNNKKTIAEGRRIPISKAVENPTATEIQDVCSAVGLNVFLEKNKMYSREWNRDVQYRGRVRVQLKQEDGSLCLVQFPSRKSVMLYAAEMIPKLKTRTQKTGGADQSLQQGEGSKKGKGKKKK [SRP19] : 0.299
2. MEEVREGHALGGGMEADGPASLQELPPSPRSPSPPPSPPPLPSPPSLPSPAAPEAPELPEPAQPSEAHARQLLLEEWGPLSGGLELPQRLTWKLLLLRRPLYRNLLRSPNPEGINIYEPAPPTGPTQRPLETLGNFRGWYIRTEKLQQNQSWTVKQQCVDLLAEGLWEELLDDEQPAITVMDWFEDSRLDACVYELHVWLLAADRRTVIAQHHVAPRTSGRGPPGRWVQVSHVFRHYGPGVRFIHFLHKAKNRMEPGGLRRTRVTDSSVSVQLRE [NCCRP1] : 0.178

Query sequence follows.
Query: Return solubility in G1/S (log2) (reported value) for this sequence: MAGDVGGRSCTDSELLLHPELLSQEFLLLTLEQKNIAVETDVRVNKDSLTDLYVQHAIPLPQRDLPKNRWGKMMEKKREQHEIKNETKRSSTVDGLRKRPLIVFDGSSTSTSIKVKKTENGDNDRLKPPPQASFTSNAFRKLSNSSSSVSPLILSSNLPVNNKTEHNNNDAKQNHDLTHRKSPSGPVKSPPLSPVGTTPVKLKRAAPKEEAEAMNNLKPPQAKRKIQHVTWP [C2ORF49]
Result: 0.348

###

tested on: HeLa Kyoto; experiment: melting temperature (median over replicates), in situ; higher = more thermally stable; conditions: cell cycle stage: G1/S
# melting temperature listing for each entry below
Please answer in the form of a number followed by its unit of measurement.

1. MAAVAALQLGLRAAGLGRAPASAAWRSVLRVSPRPGVAWRPSRCGSSAAEASATKAEDDSFLQWVLLLIPVTAFGLGTWQVQRRKWKLNLIAELESRVLAEPVPLPADPMELKNLEYRPVKVRGCFDHSKELYMMPRTMVDPVREAREGGLISSSTQSGAYVVTPFHCTDLGVTILVNRGFVPRKKVNPETRQKGQIEGEVDLIGMVRLTETRQPFVPENNPERNHWHYRDLEAMARITGAEPIFIDANFQSTVPGGPIGGQTRVTLRNEHLQYIVTWYGLSAATSYLWFKKFLRGTPGV [SURF1] : 52.2 °C

Query sequence follows.
Query: Name the value of melting temperature reported for MPAVLGFEGSANKIGVGVVRDGKVLANPRRTYVTPPGTGFLPGDTARHHRAVILDLLQEALTESGLTSQDIDCIAYTKGPGMGAPLVSVAVVARTVAQLWNKPLVGVNHCIGHIEMGRLITGATSPTVLYVSGGNTQVIAYSEHRYRIFGETIDIAVGNCLDRFARVLKISNDPSPGYNIEQMAKRGKKLVELPYTVKGMDVSFSGILSFIEDVAHRMLATGECTPEDLCFSLQETVFAMLVEITERAMAHCGSQEALIVGGVGCNVRLQEMMATMCQERGARLFATDERFCIDNGAMIAQAGWEMFRAGHRTPLSDSGVTQRYRTDEVEVTWRD [OSGEP] when tested on HeLa Kyoto.
Result: 55.5 °C

###

tested on: HeLa Kyoto; test: solubility change mitosis vs G1/S (difference of NP-40 vs SDS log2 ratios) (log2 ratio difference); higher = more soluble in mitosis
METRIC_NAME: solubility change mitosis (log2)

Solved entries:
1. MAAFAVEPQGPALGSEPMMLGSPTSPKPGVNAQFLPGFLMGDLPAPVTPQPRSISGPSVGVMEMRSPLLAGGSPPQPVVPAHKDKSGAPPVRSIYDDISSPGLGSTPLTSRRQPNISVMQSPLVGVTSTPGTGQSMFSPASIGQPRKTTLSPAQLDPFYTQGDSLTSEDHLDDSWVTVFGFPQASASYILLQFAQYGNILKHVMSNTGNWMHIRYQSKLQARKALSKDGRIFGESIMIGVKPCIDKSVMESSDRCALSSPSLAFTPPIKTLGTPTQPGSTPRISTMRPLATAYKASTSDYQVISDRQTPKKDESLVSKAMEYMFGW [NUP35] : -0.0493
2. MADVEDGEETCALASHSGSSGSKSGGDKMFSLKKWNAVAMWSWDVECDTCAICRVQVMDACLRCQAENKQEDCVVVWGECNHSFHNCCMSLWVKQNNRCPLCQQDWVVQRIGK [RNF7] : -0.169
3. MAKVSELYDVTWEEMRDKMRKWREENSRNSEQIVEVGEELINEYASKLGDDIWIIYEQVMIAALDYGRDDLALFCLQELRRQFPGSHRVKRLTGMRFEAMERYDDAIQLYDRILQEDPTNTAARKRKIAIRKAQGKNVEAIRELNEYLEQFVGDQEAWHELAELYINEHDYAKAAFCLEELMMTNPHNHLYCQQYAEVKYTQGGLENLELSRKYFAQALKLNNRNMRALFGLYMSASHIASNPKASAKTKKDNMKYASWAASQINRAYQFAGRSKKETKYSLKAVEDMLETLQITQS [EMC2] : 0.0699

Query: Return solubility change mitosis (log2) (reported value) for this sequence: MADKEKKKKESILDLSKYIDKTIRVKFQGGREASGILKGFDPLLNLVLDGTIEYMRDPDDQYKLTEDTRQLGLVVCRGTSVVLICPQDGMEAIPNPFIQQQDA [LSM7]
Result: 0.227

###

system: HeLa Kyoto; assay: solubility in G1/S (NP-40 vs SDS abundance) (log2 ratio); higher = more soluble; settings: cell cycle stage: G1/S
# solubility in G1/S (log2) listing for each entry below

Solved entries:
1. MADKEKKKKESILDLSKYIDKTIRVKFQGGREASGILKGFDPLLNLVLDGTIEYMRDPDDQYKLTEDTRQLGLVVCRGTSVVLICPQDGMEAIPNPFIQQQDA [LSM7] : 0.0991
2. MSFLLPKLTSKKEVDQAIKSTAEKVLVLRFGRDEDPVCLQLDDILSKTSSDLSKMAAIYLVDVDQTAVYTQYFDISYIPSTVFFFNGQHMKVDYGSPDHTKFVGSFKTKQDFIDLIEVIYRGAMRGKLIVQSPIDPKNIPKYDLLYQDI [TXNL4B] : 0.0975

Query: Return solubility in G1/S (log2) (reported value) for this sequence: MAAPQDVHVRICNQEIVKFDLEVKALIQDIRDCSGPLSALTELNTKVKEKFQQLRHRIQDLEQLAKEQDKESEKQLLLQEVENHKKQMLSNQASWRKANLTCKIAIDNLEKAELLQGGDLLRQRKTTKESLAQTSSTITESLMGISRMMAQQVQQSEEAMQSLVTSSRTILDANEEFKSMSGTIQLGRKLITKYNRRELTDKLLIFLALALFLATVLYIVKKRLFPFL [BNIP1]
Result: -0.186

Query: Return solubility in G1/S (log2) (reported value) for this sequence: MNAEPERKFGVVVVGVGRAGSVRMRDLRNPHPSSAFLNLIGFVSRRELGSIDGVQQISLEDALSSQEVEVAYICSESSSHEDYIRQFLNAGKHVLVEYPMTLSLAAAQELWELAEQKGKVLHEEHVELLMEEFAFLKKEVVGKDLLKGSLLFTAGPLEEERFGFPAFSGISRLTWLVSLFGELSLVSATLEERKEDQYMKMTVCLETEKKSPLSWIEEKGPGLKRNRYLSFHFKSGSLENVPNVGVNKNIFLKDQNIFVQKLLGQFSEKELAAEKKRILHCLGLAEEIQKYCCSRK [BLVRA]
Result: 0.108

###

system: HeLa Kyoto; test: melting temperature (median over replicates), in situ; higher = more thermally stable; conditions: cell cycle stage: mitosis
METRIC_NAME: melting temperature (°C)
Respond numerically; units are °C and should not be typed.

1) MAAAAAQGGGGGEPRRTEGVGPGVPGEVEMVKGQPFDVGPRYTQLQYIGEGAYGMVSSAYDHVRKTRVAIKKISPFEHQTYCQRTLREIQILLRFRHENVIGIRDILRASTLEAMRDVYIVQDLMETDLYKLLKSQQLSNDHICYFLYQILRGLKYIHSANVLHRDLKPSNLLINTTCDLKICDFGLARIADPEHDHTGFLTEYVATRWYRAPEIMLNSKGYTKSIDIWSVGCILAEMLSNRPIFPGKHYLDQLNHILGILGSPSQEDLNCIINMKARNYLQSLPSKTKVAWAKLFPKSDSKALDLLDRMLTFNPNKRITVEEALAHPYLEQYYDPTDEPVAEEPFTFAMELDDLPKERLKELIFQETARFQPGVLEAP [MAPK3] : 50.2
2) MDKQNSQMNASHPETNLPVGYPPQYPPTAFQGPPGYSGYPGPQVSYPPPPAGHSGPGPAGFPVPNQPVYNQPVYNQPVGAAGVPWMPAPQPPLNCPPGLEYLSQIDQILIHQQIELLEVLTGFETNNKYEIKNSFGQRVYFAAEDTDCCTRNCCGPSRPFTLRIIDNMGQEVITLERPLRCSSCCCPCCLQEIEIQAPPGVPIGYVIQTWHPCLPKFTIQNEKREDVLKISGPCVVCSCCGDVDFEIKSLDEQCVVGKISKHWTGILREAFTDADNFGIQFPLDLDVKMKAVMIGACFLIDFMFFESTGSQEQKSGVW [PLSCR1] : 57.2
3) MVHQVLYRALVSTKWLAESIRTGKLGPGLRVLDASWYSPGTREARKEYLERHVPGASFFDIEECRDTASPYEMMLPSEAGFAEYVGRLGISNHTHVVVYDGEHLGSFYAPRVWWMFRVFGHRTVSVLNGGFRNWLKEGHPVTSEPSRPEPAVFKATLDRSLLKTYEQVLENLESKRFQLVDSRSQGRFLGTEPEPDAVGLDSGHIRGAVNMPFMDFLTEDGFEKGPEELRALFQTKKVDLSQPLIATCRKGVTACHVALAAYLCGKPDVAVYDGSWSEWFRRAPPESRVSQGKSEKA [TST] : 49.3
4) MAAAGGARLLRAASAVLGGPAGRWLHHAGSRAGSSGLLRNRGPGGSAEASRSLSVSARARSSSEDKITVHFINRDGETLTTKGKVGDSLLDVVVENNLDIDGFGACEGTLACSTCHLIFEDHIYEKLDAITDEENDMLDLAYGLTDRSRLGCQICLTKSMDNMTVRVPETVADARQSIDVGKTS [FDX1] : 53.9
5) MVGPAPRRRLRPLAALALVLALAPGLPTARAGQTPRPAERGPPVRLFTEEELARYGGEEEDQPIYLAVKGVVFDVTSGKEFYGRGAPYNALTGKDSTRGVAKMSLDPADLTHDTTGLTAKELEALDEVFTKVYKAKYPIVGYTARRILNEDGSPNLDFKPEDQPHFDIKDEF [NENF] : 52.4
6) MAAVQMDPELAKRLFFEGATVVILNMPKGTEFGIDYNSWEVGPKFRGVKMIPPGIHFLHYSSVDKANPKEVGPRMGFFLSLHQRGLTVLRWSTLREEVDLSPAPESEVEAMRANLQELDQFLGPYPYATLKKWISLTNFISEATVEKLQPENRQICAFSDVLPVLSMKHTKDRVGQNLPRCGIECKSYQEGLARLPEMKPRAGTEIRFSELPTQMFPEGATPAEITKHSMDLSYALETVLNKQFPSSPQDVLGELQFAFVCFLLGNVYEAFEHWKRLLNLLCRSEAAMMKHHTLYINLISILYHQLGEIPADFFVDIVSQDNFLTSTLQVFFSSACSIAVDATLRKKAEKFQAHLTKKFRWDFAAEPEDCAPVVVELPEGIEMG [AAR2] : 50.4
7) MEVKPPPGRPQPDSGRRRRRRGEEGHDPKEPEQLRKLFIGGLSFETTDDSLREHFEKWGTLTDCVVMRDPQTKRSRGFGFVTYSCVEEVDAAMCARPHKVDGRVVEPKRAVSREDSVKPGAHLTVKKIFVGGIKEDTEEYNLRDYFEKYGKIETIEVMEDRQSGKKRGFAFVTFDDHDTVDKIVVQKYHTINGHNCEVKKALSKQEMQSAGSQRGRGGGSGNFMGRGGNFGGGGGNFGRGGNFGGRGGYGGGGGGSRGSYGGGDGGYNGFGGDGGNYGGGPGYSSRGGYGGGGPGYGNQGGGYGGGGGYDGYNEGGNFGGGNYGGGGNYNDFGNYSGQQQSNYGPMKGGSFGGRSSGSPYGGGYGSGGGSGGYGSRRF [HNRNPA3] : 49.3
8) MAAVAATAAAKGNGGGGGRAGAGDASGTRKKKGPGPLATAYLVIYNVVMTAGWLVIAVGLVRAYLAKGSYHSLYYSIEKPLKFFQTGALLEILHCAIGIVPSSVVLTSFQVMSRVFLIWAVTHSVKEVQSEDSVLLFVIAWTITEIIRYSFYTFSLLNHLPYLIKWARYTLFIVLYPMGVSGELLTIYAALPFVRQAGLYSISLPNKYNFSFDYYAFLILIMISYIPIFPQLYFHMIHQRRKILSHTEEHKKFE [HACD2] : 55.4

Query: Return melting temperature (reported value) for this sequence: MARMNRPAPVEVTYKNMRFLITHNPTNATLNKFIEELKKYGVTTIVRVCEATYDTTLVEKEGIHVLDWPFDDGAPPSNQIVDDWLSLVKIKFREEPGCCIAVHCVAGLGRAPVLVALALIEGGMKYEDAVQFIRQKRRGAFNSKQLLYLEKYRPKMRLRFKDSNGHRNNCCIQ [PTP4A1]
Result: 53.8

Query: Return melting temperature (reported value) for this sequence: MSKSKDDAPHELESQFILRLPPEYASTVRRAVQSGHVNLKDRLTIELHPDGRHGIVRVDRVPLASKLVDLPCVMESLKTIDKKTFYKTADICQMLVSTVDGDLYPPVEEPVASTDPKASKKKDKDKEKKFIWNHGITLPLKNVRKRRFRKTAKKKYIESPDVEKEVKRLLSTDAEAVSTRWEIIAEDETKEAENQGLDISSPGMSGHRQGHDSLEHDELREIFNDLSSSSEDEDETQHQDEEDINIIDTEEDLERQLQDKLNESDEQHQENEGTNQLVMGIQKQIDNMKGKLQETQDRAKRQEDLIMKVENLALKNRFQAVLDELKQKEDREKEQLSSLQEELESLLEK [TAF7]
Result: 51.6
